experiment: Antioxidant activity in liver microsomes assessed as inhibition of Fe(2+)-Cys system-induced lipid peroxidation preincubated for 15 mins at 37 degC; assay type: functional, Microsome
Test Readout: pIC50
// returns pIC50 (minus log10 of molar concentration), number only

Input C=CCc1cc(OC)c(O[C@@H](CO)[C@H](O)c2cc(OC)c(O)c(OC)c2)c(OC)c1 . Output pIC50: 4.37
